# System: RPMI-8226
# assay_summary: NCI tumour cell line growth inhibition, 48 h
Calls of active or inactive are those of the source. Rule as the data show it: active = GI50 up to about 1.1 µM and inactive = higher.
outcome_measure: GI50

The reported GI50 of the molecule COc1ccc2c(c1)CC1NC2Cc2ccccc21 (configuration not stated) was > 100 µM (inactive)

The reported GI50 of the molecule "Cn1c(CO)ccc1-c1ccc(-c2ccc[se]2)[se]1" was 20.9 µM (inactive)

The reported GI50 of the molecule "N#Cc1c(-c2ccco2)cc(-c2ccccc2)nc1O" was > 100 µM (inactive)

The reported GI50 of the molecule COC(=O)/C=C(C)/C=C\COC1CCCCO1 (configuration not stated) was > 100 µM (inactive)

The reported GI50 of the molecule CCC(=O)C(CCN1CCC(N2C(=O)C(CCC#N)c3ccccc32)CC1)(c1ccccc1)c1ccccc1 (configuration not stated) was 4.17 µM (inactive)

The reported GI50 of the molecule "COc1ccc(/N=C2/C(=N/c3ccc(OC)cc3)N(c3ccccc3)C(=S)N2N=C=C2Sc3ccccc3N2C)cc1" was > 100 µM (inactive)

The reported GI50 of the molecule Cc1ccc(S(=O)(=O)N/N=C(\c2nc3ccc(Cl)cc3nc2O)C(O)c2cccc([N+](=O)[O-])c2)cc1 (configuration not stated) was 71 µM (inactive)

The reported GI50 of the molecule "O=c1cn[nH]c(=S)n1/N=C/c1c[nH]c2ccccc12" was 49.5 µM (inactive)

The reported GI50 of the molecule CCC12C=CCN3CC[C@]4(C(=C(C(=O)OC)[C@@H]1Nc1ccn(C5OC(COC(C)=O)C(OC(C)=O)C5OC(C)=O)c(=O)n1)Nc1ccccc14)C32 (some centres not stated) was 5.46 µM (inactive)

The reported GI50 of the molecule O=C(O)CCc1nc2ccccc2[nH]1 [PROCODAZOLE] was > 100 µM (inactive)

The reported GI50 of the molecule CC(=O)NC(CCCN(Cc1ccccc1)C(=O)NCCCl)C(=O)NCc1ccccc1 (configuration not stated) was > 100 µM (inactive)

The reported GI50 of the molecule "Nn1c(CNc2ccc(-c3nnc(Nc4ccc(Cl)cc4)n3N)cc2)nnc1Nc1ccc(Cl)cc1" was 61.9 µM (inactive)

====

GI50 overview
# Test system: SR
# assay_summary: NCI tumour cell line growth inhibition, 48 h
The source made the active and inactive calls. Rule as the data show it: active = GI50 up to about 1.1 µM and inactive = higher.

{"compound": "CCN1CCC(O)(c2ccc(Oc3ccc(Cl)cc3)cc2)C(C(=O)c2ccc(Oc3ccc(Cl)cc3)cc2)C1 (stereo not given)", "assayed_system": "SR", "outcome_measure": "GI50", "test_result": "3.48 µM (inactive)"}

Readout GI50 for N=C(N)N/N=C(/CC1OC(=O)c2ccccc21)c1ccc2ccccc2c1 (stereo not given) , test system SR, was 14.2 µM (inactive)

Readout GI50 for COC(=N)C12C(N)=NC(OC)(OC)C1(C#N)C21C(=O)N(c2ccccc2)N=C1C (stereo not given) , test system SR, was 37.6 µM (inactive)

Readout GI50 for "Cc1cc(Cl)nc2ccc(Cc3ccc4nc(Cl)cc(C)c4c3)cc12" , test system SR, was 85.3 µM (inactive)

Readout GI50 for "CCn1sc2ccccc2c1=O" , test system SR, was 1.95 µM (inactive)

====

# System: NCI-H522
# assay_summary: NCI tumour cell line growth inhibition, 48 h
The source made the active and inactive calls. No stated cut-off is given here; in the data, active = GI50 up to about 1.1 µM and inactive = higher. Where a SMILES comes first, the peptide text is derived from it. Bridges are numbered along the chain shown (N, C = ends). The star is where a group is joined. Cbz = O=C(OCc1ccccc1)*
Thanks in advance; please answer with one of these: true (active), false (inactive)

Example entries and their recorded answers appear below.
{"compound": "c1ccc2sc(SCCSc3nc4ccccc4s3)nc2c1", "cat": "false"}
{"compound": "COc1ccc2c3c1OC1C(=O)C=CC4(O)C(C2)NCC[C@@]314 (some centres undefined)", "cat": "true"}
{"compound": "CC1=CC(=O)/C(=C/n2c(=S)[nH]c3ccccc32)C(=O)O1", "cat": "false"}
{"compound": "Cc1cccc(/N=N/c2c(C)nn(C(=O)CC(=O)Nc3ccccc3)c2C)c1", "cat": "false"}
{"compound": "COC1/C=C\\OC2(C)Oc3c(C)c(O)c4c(O)c(c(CN(C)C)c(O)c4c3C2=O)NC(=O)/C(C)=C\\C=C/C(C)C(O)C(C)C(O)C(C)C(OC(C)=O)C1C (centres undefined)", "cat": "false"}
{"compound": "O=CCCCCCOCc1ccccc1", "cat": "false"}
{"compound": "COCC12CCC(OC)C34C5CC6(O)C(OC)CC(OC(C)=O)(C5C6OC(=O)c5ccccc5)C(C(OC)C13)C4N(C)C2 (centres undefined)", "cat": "false"}
{"compound": "COP(=O)(OC)OCN(C)CC/C=C(\\C)CC/C=C(\\C)CCC=C(C)C", "cat": "false"}

Problem: GET /call?item= "CNC(=O)CN(CC(=O)NC)C(=O)NC" returns the recorded outcome of this test.
Solution: false

Problem: GET /call?item= O=C(NN1C(=O)C(Cl)C1c1cccc(O)c1)c1ccccc1O (centres undefined) returns the recorded outcome of this test.
Solution: false

Problem: GET /call?item= "COc1ccc2c(c1)[n+]([O-])c(-c1nc3ccccc3s1)c(N)[n+]2[O-]" returns the recorded outcome of this test.
Solution: false

Problem: GET /call?item= "O=C(c1ccc(Cl)c(Cl)c1)N(Cc1cccnc1)C(=S)N(Cc1cccnc1)C(=O)c1ccc(Cl)c(Cl)c1" returns the recorded outcome of this test.
Solution: false

Problem: GET /call?item= Clc1ccc(C2=Nc3ccccc3SC(c3cccs3)C2)cc1 (centres undefined) returns the recorded outcome of this test.
Solution: false

Problem: GET /call?item= COC(=O)C1CCCCNC(=O)CCC(NC(=O)OCc2ccccc2)C(=O)N1 (stereo not drawn) (Cbz-Glu-Lys-OMe; lactam 1-2; configuration not given here) returns the recorded outcome of this test.
Solution: false

Problem: GET /call?item= OC(CC1CCCCN1)c1ccc2c(c1)oc1ccccc12 (centres undefined) returns the recorded outcome of this test.
Solution: false
